Target: TDO (Homo sapiens (Human), UniProt P48775)
Sequence (P48775 whole entry): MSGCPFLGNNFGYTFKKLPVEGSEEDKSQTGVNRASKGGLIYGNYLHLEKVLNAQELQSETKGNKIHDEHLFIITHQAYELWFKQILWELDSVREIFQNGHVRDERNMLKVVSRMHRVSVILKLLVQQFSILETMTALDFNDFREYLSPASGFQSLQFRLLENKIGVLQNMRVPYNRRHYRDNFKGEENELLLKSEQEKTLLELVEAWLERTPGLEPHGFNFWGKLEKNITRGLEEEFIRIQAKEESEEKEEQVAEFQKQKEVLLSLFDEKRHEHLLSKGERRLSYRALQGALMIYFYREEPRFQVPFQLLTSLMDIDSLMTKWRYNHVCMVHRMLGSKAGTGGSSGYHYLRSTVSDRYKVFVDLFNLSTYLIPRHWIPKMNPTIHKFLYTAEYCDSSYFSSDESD
Assay: hTDO biochemical coupled assay
Conditions: 330 μM L-tryptophan, 17 minutes at room temperature
result-type: hTDO biochemical assay, pIC50

compound	target-under-test	measured-result
O=C(Nc1cccn2cncc12)c1ccccc1 [Compound 1001]	TDO (Homo sapiens (Human), UniProt P48775)	+/− (+/− = pIC50 <4.00)
OCCc1cc(C(F)(F)F)cn2cncc12 [Compound 1008]	TDO (Homo sapiens (Human), UniProt P48775)	+/− (+/− = pIC50 <4.00)

###

Measured IC50 values are reported for all entries that follow.
Target: IDO1 (Homo sapiens (Human), UniProt P14902)
Sequence (P14902 whole entry): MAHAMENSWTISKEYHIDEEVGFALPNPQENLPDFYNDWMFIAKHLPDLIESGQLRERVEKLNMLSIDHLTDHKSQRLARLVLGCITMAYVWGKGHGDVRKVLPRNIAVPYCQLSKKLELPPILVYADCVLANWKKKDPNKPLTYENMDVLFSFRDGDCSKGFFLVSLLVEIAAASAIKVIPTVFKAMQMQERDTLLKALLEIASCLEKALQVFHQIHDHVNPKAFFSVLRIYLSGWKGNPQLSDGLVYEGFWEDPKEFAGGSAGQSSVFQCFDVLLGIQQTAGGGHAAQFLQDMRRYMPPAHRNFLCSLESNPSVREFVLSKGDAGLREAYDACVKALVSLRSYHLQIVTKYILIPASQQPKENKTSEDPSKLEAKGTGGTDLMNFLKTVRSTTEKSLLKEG
Assay: IDO1 HEK293 Cellular Assay
Format: cell-based
Conditions: HEK293 cells transfected with Flag-IDO1, 200 μM L-Tryptophan, 20-24 hours; read-out: HEK293 cell, pIC50 (converted)
The response must be a number in nM with no trailing unit.

The reported value for Cn1c(N)c(N2CCN(c3cc(C(F)(F)F)cc4cncn34)CC2)c(=O)n(C)c1=O [Compound 1037] in terms of IC50 is 3980

###

Target: TDO (Homo sapiens (Human))
Assay: A172 kynurenine cell-based assay
Conditions: A172 human glioblastoma cells, 500 μM L-tryptophan, 48 hours; read-out: A172 Kynurenine cell based assay, pIC50 (converted)
result-type: IC50

These solved cases illustrate the format of a correct answer.
CS(=O)(=O)c1ccc(-c2cc(Cl)cn3cncc23)cc1 ≤ 3.16 µM
CS(=O)(=O)N1CCC(c2cc(C(F)(F)F)cn3cncc23)CC1 3.24 to 31.6 µM
CS(=O)(=O)c1ccc(-c2cc(C(F)(F)F)cc3cncn23)cc1 3.24 to 31.6 µM

The reported value for CC1(C)CN(c2cc(C(F)(F)F)cn3cncc23)CCN1S(C)(=O)=O in terms of IC50 is ≤ 3.16 µM

###

Target: UniProt:P48775
Assay: A172 kynurenine cell-based assay
Details: A172 human glioblastoma cells, 500 μM L-tryptophan, 48 hours
result-type: A172 Kynurenine cell based assay, pIC50

These solved cases illustrate the format of a correct answer.
CS(=O)(=O)N1CCC(Nc2cc(C(F)(F)F)cn3cncc23)CC1 +/− (+/− = pIC50 <4.00)
CS(=O)(=O)N1CCN(c2cc(Cl)cc3cncn23)CC1 + (+ = pIC50 4.00-4.49)
CC(=O)N1CCN(c2cc(C(F)(F)F)cn3cncc23)CC1(C)C +++ (+++ = pIC50 ≥5.50)
CC(=O)N1CCN(c2cc(Cl)cc3cncn23)CC1(C)C +++ (+++ = pIC50 ≥5.50)
O=C(Nc1cccn2cncc12)c1ccccc1 +/− (+/− = pIC50 <4.00)

The reported value for CC1(C)CN(c2cc(Cl)cn3cncc23)CCN1S(C)(=O)=O in terms of A172 Kynurenine cell based assay, pIC50 is +++ (+++ = pIC50 ≥5.50)

The reported value for CC(=O)N1CCC(c2cc(C(F)(F)F)cn3cncc23)CC1 in terms of A172 Kynurenine cell based assay, pIC50 is + (+ = pIC50 4.00-4.49)

###

Biological target: IDO (Homo sapiens (Human))
Sequence (P14902 whole entry): as above
Assay: hIDO biochemical coupled assay
Settings: 45 μM L-tryptophan, 17 minutes at room temperature
result-type: hIDO biochemical assay, pIC50

O=C(Nc1cccn2cncc12)c1ccccc1 +/− (+/− = pIC50 <4.00)
CC(=O)N1CCN(c2cc(C(F)(F)F)cn3cncc23)CC1 +/− (+/− = pIC50 <4.00)
OCCc1cc(C(F)(F)F)cn2cncc12 +/− (+/− = pIC50 <4.00)

###

Target: IDO1 (Homo sapiens (Human), UniProt P14902)
Experiment: IDO1 Enzyme Assay
Type: biochemical
Details: HIS-tagged recombinant IDO1, tryptophan substrate, fluorescence readout; read-out: IDO1 Enzyme, pIC50 (converted)
result-type: IC50 (nM)
The response must be a number in nM with no trailing unit.

These solved cases illustrate the format of a correct answer.
Cn1c(N)c(N2CCN(c3cc(C(F)(F)F)cc4cncn34)CC2)c(=O)n(C)c1=O 794
Cc1noc(C2CCN(c3cc(C(F)(F)F)cc4cncn34)CC2)c1C(N)=O 251
FC(F)(F)c1cc(N2CCC(n3cnnn3)CC2)n2cncc2c1 1000

# evaluate next
The reported value for CNC(=O)c1c(C)noc1C1CCN(c2cc(C(F)(F)F)cc3cncn23)CC1 in terms of IC50 is 398

###

Target: UniProt:P14902
Experiment: IDO1 HEK293 Cellular Assay
Assay type: cell-based
Settings: HEK293 cells transfected with Flag-IDO1, 200 μM L-Tryptophan, 20-24 hours; read-out: HEK293 cell, pIC50 (converted)
Experimental: IDO1 HEK293 Cellular Assay Compounds to be tested were serially diluted in ten 3-fold steps in DMSO starting from 10 mM DMSO stocks. […] Media was removed from the cells which were then washed with 2 mL Dulbecco's phosphate-buffered saline (DPBS). […] The resulting fluoresence was measured in an Envision plate reader (Perkin Elmer) with a 400/25 nm excitation filter and an 510/20 nm emission filter. […]
Measured IC50 values are reported for all entries that follow.
The response must be a number in nM with no trailing unit.

These solved cases illustrate the format of a correct answer.
Cc1noc(C2CCN(c3cc(C(F)(F)F)cc4cncn34)CC2)c1C(N)=O 501
FC(F)(F)c1cc(N2CCC(n3cnnn3)CC2)n2cncc2c1 794

# evaluate next
The reported value for CNC(=O)c1c(C)noc1C1CCN(c2cc(C(F)(F)F)cc3cncn23)CC1 in terms of IC50 is 2510
